- Tested system: MDM2 (Homo sapiens, UniProt Q00987)
- Sequence (Q00987 whole entry): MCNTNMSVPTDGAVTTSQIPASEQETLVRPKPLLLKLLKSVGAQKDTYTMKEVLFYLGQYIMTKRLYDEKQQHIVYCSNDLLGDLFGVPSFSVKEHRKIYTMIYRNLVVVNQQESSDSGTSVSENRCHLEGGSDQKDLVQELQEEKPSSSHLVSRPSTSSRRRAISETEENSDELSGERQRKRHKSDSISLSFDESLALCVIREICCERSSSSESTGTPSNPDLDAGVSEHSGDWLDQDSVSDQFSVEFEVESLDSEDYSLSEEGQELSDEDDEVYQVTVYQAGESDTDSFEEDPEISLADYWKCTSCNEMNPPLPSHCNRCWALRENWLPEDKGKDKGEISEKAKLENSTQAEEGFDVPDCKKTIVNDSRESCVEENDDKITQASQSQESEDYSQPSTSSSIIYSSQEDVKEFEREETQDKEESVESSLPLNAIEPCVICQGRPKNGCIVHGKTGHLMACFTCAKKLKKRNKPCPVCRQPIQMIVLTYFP
- Assay procedure: MDM2 binding screen of Libraries 3 and 4: displacement of fluorescent probe F-M8 at 750 nM macrocycle
- Run parameters: Panel b, Library 3: 63 scaffolds combinatorially acylated with 15 carboxylic acids at 30 picomole scale; displacement of fluorescent peptide probe; macrocycle 750 nM
Property: fraction of fluorescent probe displaced

>  <Molecule>
Cn1cc(C[C@@H]2NC(=O)[C@H](CNC(=O)/C=C/c3ccc(Cl)cc3)NC(=O)C3(CC3)CNC(=O)CCSSCCNC2=O)c2ccccc21

>  <Reported value>
0.008

$$$$
>  <Molecule>
CN1C(=O)[C@@H](CNC(=O)/C=C/c2ccc(Cl)cc2)NC(=O)[C@@H]2CN(CCO2)C(=O)CCSSCCNC(=O)[C@@H]1Cc1c[nH]c2ccccc12

>  <Reported value>
0.008

$$$$
>  <Molecule>
O=C(NC[C@@H]1NC(=O)[C@H]2CCCN(C2)C(=O)CCSSCCNC(=O)[C@H](Cc2cccc3ccccc23)NC1=O)c1ccc2ccccc2c1

>  <Reported value>
0.056

$$$$

a = O=C(/C=C/c1ccc(Cl)cc1)NC[C@H]1NC(=O)C2(CC2)CNC(=O)CCSSCCNC(=O)[C@H](Cc2cccc3ccccc23)NC1=O
b = CN1C(=O)[C@H](CNC(=O)/C=C/c2ccc(Cl)cc2)NC(=O)[C@H]2CCCN(C2)C(=O)CCSSCCNC(=O)[C@@H]1Cc1c[nH]c2ccccc12
Challenge: Higher fraction of fluorescent probe displaced: a or b ? State the label of the item chosen.
Response given: a

* * *

- Tested system: UniProtKB Q00987
- Assay procedure: MDM2 binding screen: displacement of fluorescent p53 peptide probe FP53 (fluorescence polarization)
- Run parameters: Acid 14; replicate; crude macrocycle reactions
Numbered stars: 1 amine (or outer) side, 2 acyl side, 3 side chain; on linkers, the order of the positions; unused ones are H or OH. Bridge positions count the residues as written; N and C are the ends. Square brackets hold non-standard residues; d marks the D form. Peptide text beside a SMILES is read from it. * marks the point of attachment. 2Thenoyl(5-Cl) = O=C(c1ccc(Cl)s1)*; Cysteamide = C(CS[*:3])N[*:1]; Dap = NC[C@H](N)C(=O)O; Mpa = O=C(O)CCS
Property: fraction fluorescent probe displaced, Replicate

>  <Molecule>
O=C(NC[C@@H]1NC(=O)[C@@H]2CCCN2C(=O)CCSSCCNC(=O)[C@H](Cc2c[nH]c3ccccc23)NC1=O)c1ccc(Cl)s1 [X B1 D3 W Acid 14] ([Mpa]P[Dap](2Thenoyl(5-Cl))W-Cysteamide; disulfide 1-C)

>  <Tested system>
UniProtKB Q00987

>  <Reported value>
0.10

$$$$

I = O=C1CCNC(=O)C(Cc2c[nH]c3ccccc23)NC(=O)C2CN(C(=O)c3ccc(Cl)s3)CCN2C(=O)CCSSCCN1 (stereo not drawn)
II = O=C1CCNC(=O)C2(CCN(C(=O)c3ccc(Cl)s3)CC2)NC(=O)[C@H](Cc2ccccc2)NC(=O)CCSSCCN1
III = O=C(NC1CC2C(=O)N3CCCC(C3)C(=O)NC(Cc3ccccc3)C(=O)NCCSSCCC(=O)N2C1)c1ccc(Cl)s1 (stereo not drawn)
Challenge: Ordering criterion: fraction fluorescent probe displaced, Replicate; begin with the maximum. As an answer, provide the labels arranged in the order called for.
Response given: I, II, III
(I: 0.10, II: 0.0465, III: 0.0211)

A = O=C1CCSSCCNC(=O)C(Cc2ccccc2)NC(=O)C2(CCN(C(=O)c3ccc(Cl)s3)CC2)NC(=O)c2cccc(c2)CN1 (stereo not drawn)
B = O=C1CCSSCCNC(=O)C2CCCN(C2)C(=O)C2CC(NC(=O)c3ccc(Cl)s3)CN2C(=O)C(Cc2ccccc2)N1 (stereo not drawn)
Challenge: From the items above, decide which of A and B has the lower fraction fluorescent probe displaced, Replicate reading. Indicate your choice by writing its label.
Response given: B
(B: 0.0211, A: 0.05)
